Test system: Community 10
assay.method.text: relative growth (AUC of 72 h growth curve relative to DMSO control, dAUC) (ratio); higher = more growth (less inhibition), active = hit call of the paper
assay.conditions: 20 µM
reported.endpoint: relative growth
Answer using only a numeral; do not append any unit.

In: Quick one: relative growth for CCCC(Cn1cncn1)c1ccc(Cl)cc1Cl (stereo unspecified) ?
Out: 0.973

In: Quick one: relative growth for COCC(=O)N(c1c(C)cccc1C)[C@H](C)C(=O)OC ?
Out: 0.999

In: Quick one: relative growth for CCOC(=O)CC(SP(=S)(OC)OC)C(=O)OCC (stereo unspecified) ?
Out: 0.992

In: Quick one: relative growth for COc1cc(C)c(C(=O)c2c(OC)ccc(Br)c2C)c(OC)c1OC ?
Out: 0.986

In: Quick one: relative growth for CC(C1CC1)C(O)(Cn1cncn1)c1ccc(Cl)cc1 (stereo unspecified) ?
Out: 1.02

In: Quick one: relative growth for CS(=O)(=O)c1ccc(C(=O)C2C(=O)CCCC2=O)c([N+](=O)[O-])c1 ?
Out: 1.02
